test system: AKT2 (human), P31751 [S474D]; experiment: radiometric filter-binding kinase assay; settings: compound 1.0 µM
Sequence (P31751 whole entry S474D, looked up): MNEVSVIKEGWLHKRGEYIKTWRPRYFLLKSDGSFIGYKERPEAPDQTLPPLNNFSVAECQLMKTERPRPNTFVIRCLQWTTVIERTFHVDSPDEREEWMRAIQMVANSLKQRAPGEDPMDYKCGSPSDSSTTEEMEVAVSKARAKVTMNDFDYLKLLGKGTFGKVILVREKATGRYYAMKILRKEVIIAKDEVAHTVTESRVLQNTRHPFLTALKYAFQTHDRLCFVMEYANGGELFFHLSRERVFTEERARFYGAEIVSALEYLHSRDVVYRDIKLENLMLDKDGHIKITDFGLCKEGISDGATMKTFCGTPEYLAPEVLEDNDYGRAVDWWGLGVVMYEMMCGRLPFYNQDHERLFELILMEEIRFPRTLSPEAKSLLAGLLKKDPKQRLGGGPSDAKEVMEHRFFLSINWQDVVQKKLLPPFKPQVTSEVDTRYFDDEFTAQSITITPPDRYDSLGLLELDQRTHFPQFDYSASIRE
endpoint-name: residual activity (%)

molecule	units-of-measure	readout-number
Oc1ccc2ccccc2c1SSc1c(O)ccc2ccccc12	%	1
O=c1c(O)c(-c2ccc(O)c(O)c2)oc2cc(O)c(O)c(O)c12	%	21
NC1(c2ccc(-c3nc4ccn5c(=O)[nH]nc5c4cc3-c3ccccc3)cc2)CCC1	%	86
O=C(NCCCNc1nc(Nc2cccc(CN3CCOCC3)c2)ncc1C1CC1)C1CCC1	%	108
O=C(Nc1nc2cc(C(F)(F)F)cc(NC3CC3)n2n1)c1cccnc1	%	94
CC1=C(CO)C(=O)O[C@@H]([C@@H](C)[C@H]2CC[C@H]3[C@@H]4C[C@H]5O[C@]56[C@@H](O)C=CC(=O)[C@]6(C)C4CC[C@]23C)C1 (some centres undefined)	%	72
Oc1ccc(/C=C/c2cc(O)cc(O)c2)cc1	%	108
C[C@H]1CCCC(=O)CCC/C=C/c2cc(O)cc(O)c2C(=O)O1	%	97
COc1cc(O)c2c(c1)/C=C/C[C@H](O)[C@H](O)C(=O)/C=C\C[C@H](C)OC2=O	%	84

# credit: the kinase profiling compilation of Christmann-Franck et al. (2016)
